assay: gradient 5% acetonitrile 3 min, to 50% in 2 min, to 85% in 15 min, held 3 min, 100 µL/min; conditions: column: Zorbax Extend-C18 2.1 x 50 mm; eluents: water / acetonitrile, 0.1% formic acid
parameterMeasured: RP-LC retention time (s)

molecule	RP-LC retention time [s]
Cc1cccc(-c2nnc(C)c(N3CCCCC3C)n2)c1 (centres undefined)	765

[P] CCC(C)NC(=O)c1cc(NC(C)=O)cc2nc(C)ccc12 (centres undefined)
[Q] Cc1nnc(-c2c(S(=O)(=O)N3CCC(Cc4ccccc4)CC3)c(C)n(C)c2C)o1
Of the two listed items, P and Q , which carries the larger RP-LC retention time figure? Answer = label.
Q

[a] CC(C)S(=O)(=O)c1cc2c(cc1NC(=O)c1ccc(F)cc1)n(C)c(=O)n2C
[b] CCOc1ccc(Cl)cc1S(=O)(=O)N1CCC(C(=O)Nc2ccccc2C(=O)OC)CC1
Identify the entry with the larger RP-LC retention time. Options: a and b Your choice should be expressed through its label.
b
(b: 1150 s, a: 788 s)

[1] Cn1nc(-c2ccc(F)cc2)cc1C(=O)NCCN1CCN(C(=O)c2cccs2)CC1
[2] Cc1ccc(NC(=O)c2cc(C)n3nccc3n2)cc1C
RP-LC retention time comparison. Which is larger, 1 or 2 ? Refer to your chosen item by its label in the answer.
2

# credit: the METLIN SMRT retention time set (Domingo-Almenara et al. 2019)
